Source: the supplement of paper PMC11417369

Tested on: PfAP2-G AP2 domain (GST-tagged)
method summary: gcPBM binding intensity (ln(normalized median fluorescence intensity)); higher = stronger DNA binding
The full ranking holds about 25,000 sequences; the median of “ln(normalized median fluorescence intensity)” is about 10, and the highest 2% start at about 12. The sample as a whole holds a higher share of the highest values than the screen did.
assay metric: gcPBM binding intensity (ln)
Keep the answer to the number alone.

Write down the reported gcPBM binding intensity (ln) of TTTTTTTTTTTTTTGTGTACATATAATGCACATTAT [XGTACX_site6505] , test system: PfAP2-G AP2 domain (GST-tagged). 11.4

Write down the reported gcPBM binding intensity (ln) of ATATATATGGTCATTTGTACATATCGTGAGAGCTGC [XGTACX_site4117] , test system: PfAP2-G AP2 domain (GST-tagged). 11

Write down the reported gcPBM binding intensity (ln) of TAAATATAAGTGTACATACACACTTTACAATCTCAT [CACACA_site3006] , test system: PfAP2-G AP2 domain (GST-tagged). 11.3

Write down the reported gcPBM binding intensity (ln) of TATATAAATAAATGTGTACACACATTAAAATCAAAC [CACACA_site8733] , test system: PfAP2-G AP2 domain (GST-tagged). 11.6

Write down the reported gcPBM binding intensity (ln) of TTTTCTAAATAAATAGTGCATTTATTATATATACAT [GTGCAC_site9766] , test system: PfAP2-G AP2 domain (GST-tagged). 9.97

Write down the reported gcPBM binding intensity (ln) of AAAAAAAAAAAAAACACACAGAAATATATATATATT [CACACA_site832] , test system: PfAP2-G AP2 domain (GST-tagged). 9.82

Write down the reported gcPBM binding intensity (ln) of TTTTTTTAATAAAAGTGTACCAAATTATATACACAT [XGTACX_site6811] , test system: PfAP2-G AP2 domain (GST-tagged). 11.1

Write down the reported gcPBM binding intensity (ln) of CATTTTATTTTAATATGTACTTAAAGAAAAAAAATT [XGTACX_site7670] , test system: PfAP2-G AP2 domain (GST-tagged). 11.2

Write down the reported gcPBM binding intensity (ln) of CTTTTTTTCTTTCCAAGTACTAAATTCATACAAATT [XGTACX_site2605] , test system: PfAP2-G AP2 domain (GST-tagged). 10.8

Write down the reported gcPBM binding intensity (ln) of ATAAATATACCAATCGGTACACATTTATACAAACAA [XGTACX_site7484] , test system: PfAP2-G AP2 domain (GST-tagged). 11

Write down the reported gcPBM binding intensity (ln) of TTTAAAAATTAATTCTGTACACATTTTTATTATATT [XGTACX_site4212] , test system: PfAP2-G AP2 domain (GST-tagged). 11.5

Write down the reported gcPBM binding intensity (ln) of TAAGTCGCCAAAAGGTGTACACATAATGCATTATCA [XGTACX_site8852] , test system: PfAP2-G AP2 domain (GST-tagged). 11.8

Write down the reported gcPBM binding intensity (ln) of AACAATTATTGTAATGCATGCACTGAATATAGAAAG [TGCATGCA_site889] , test system: PfAP2-G AP2 domain (GST-tagged). 10.2

Write down the reported gcPBM binding intensity (ln) of ATATAATGAAGTGAATGTACATATAAAATGTAAAAA [XGTACX_site8052] , test system: PfAP2-G AP2 domain (GST-tagged). 11.1

Write down the reported gcPBM binding intensity (ln) of TTAAAAGATATTACATGTACATATTCAATATATGTA [XGTACX_site5895] , test system: PfAP2-G AP2 domain (GST-tagged). 11.1

Write down the reported gcPBM binding intensity (ln) of TGCATGCATTATCATAGTACATATAATGTTGTATAA [XGTACX_site2775] , test system: PfAP2-G AP2 domain (GST-tagged). 10.7

Write down the reported gcPBM binding intensity (ln) of AAAAGAATTTGAAGTCGTACAATATCTATTATATGA [XGTACX_site8275] , test system: PfAP2-G AP2 domain (GST-tagged). 11.2

Write down the reported gcPBM binding intensity (ln) of CAGTATTACATGAGGACACACACAAAAAAAATATAT [CACACA_site8156] , test system: PfAP2-G AP2 domain (GST-tagged). 11.3

Write down the reported gcPBM binding intensity (ln) of CTTTATATATAGTGTACACATTAAACAAATCTCAAT [CACACA_site5845] , test system: PfAP2-G AP2 domain (GST-tagged). 11.6

Write down the reported gcPBM binding intensity (ln) of AAGATAAAATGATGCACACAAAAGGGTGTAATATAT [CACACA_site1706] , test system: PfAP2-G AP2 domain (GST-tagged). 10.1

Write down the reported gcPBM binding intensity (ln) of TATAAATAAATGTGTACACACATTAAAATCAAACGT [CACACA_site2340] , test system: PfAP2-G AP2 domain (GST-tagged). 11.7

Write down the reported gcPBM binding intensity (ln) of GAAAAAAATGAAATTAGTACTTATCTTAAATTTTTA [XGTACX_site1018] , test system: PfAP2-G AP2 domain (GST-tagged). 10.8

Write down the reported gcPBM binding intensity (ln) of ATAAAAGATATTTTTACACACTTTTGATGAGATCGT [CACACA_site3053] , test system: PfAP2-G AP2 domain (GST-tagged). 10.1

Write down the reported gcPBM binding intensity (ln) of ACAATAAAGAAGTGTACACATATATCAATAAAAAAA [CACACA_site5228] , test system: PfAP2-G AP2 domain (GST-tagged). 11.6

Write down the reported gcPBM binding intensity (ln) of AATAGTAAAAGATATACACACACCAAAAAATATAAT [CACACA_site5293] , test system: PfAP2-G AP2 domain (GST-tagged). 10.2
